System: WT clade B virus
Experiment: PhenoSense HIV antiviral assay
Assay type: cell-based
observed property: EC50 (nM)
Return type: number; implicit unit nM.

In plain terms, CC(C)CN(C[C@@H](O)[C@H](Cc1ccccc1)NC(=O)O[C@H]1CO[C@H]2OCC[C@H]21)S(=O)(=O)c1ccc(N)cc1 [DRV, Darunavir] has a documented EC50 of 0.4

###

Assay: Microsomal stability
Format: in vitro ADME
Settings: human microsomes, 30 min, RTV +
Listing of recorded Microsomal Stability (Avg. % Fraction Remaining) at 30 Minutes Human by entry.
Return type: number; implicit unit %.

Sample answers from the record:
# molecule, result unit, quantitative readout
records = [
    ("CC[C@H](C)CN(C[C@@H](O)[C@H](Cc1ccccc1)NC(=O)O[C@H]1CO[C@H]2OCC[C@H]21)S(=O)(=O)c1ccc2c(c1)OCO2 [10d]", "%", 80),
    ("CCC(CC)CN(C[C@@H](O)[C@H](Cc1ccccc1)NC(=O)O[C@H]1CO[C@H]2OCC[C@H]21)S(=O)(=O)c1ccc2c(c1)OCO2 [11d]", "%", 55),
    ("CCC(CC)CN(C[C@@H](O)[C@H](Cc1ccccc1)NC(=O)O[C@H]1CO[C@H]2OCC[C@H]21)S(=O)(=O)c1ccc(CO)cc1 [11c]", "%", 64),
    ("CC[C@H](C)CN(C[C@@H](O)[C@H](Cc1ccccc1)NC(=O)O[C@H]1CO[C@H]2OCC[C@H]21)S(=O)(=O)c1ccc(CO)cc1 [10c]", "%", 93),
    ("CCC(CC)CN(C[C@@H](O)[C@H](Cc1ccccc1)NC(=O)O[C@H]1CO[C@H]2OCC[C@H]21)S(=O)(=O)c1ccc(OC)cc1 [11b]", "%", 75),
]

In plain terms, CC[C@H](C)CN(C[C@@H](O)[C@H](Cc1ccccc1)NC(=O)O[C@H]1CO[C@H]2OCC[C@H]21)S(=O)(=O)c1ccc(N)cc1 [10a] has a documented Microsomal Stability (Avg. % Fraction Remaining) at 30 Minutes Human of 81

In plain terms, CC[C@H](C)CN(C[C@@H](O)[C@H](Cc1ccccc1)NC(=O)O[C@H]1CO[C@H]2OCC[C@H]21)S(=O)(=O)c1ccc(OC)cc1 [10b] has a documented Microsomal Stability (Avg. % Fraction Remaining) at 30 Minutes Human of 79

###

Experiment: Microsomal stability
Assay type: in vitro ADME
Conditions: human microsomes, 60 min, RTV +
The threshold is inclusive: Microsomal Stability (Avg. % Fraction Remaining) at 60 Minutes Human of exactly 70% counts as class 1; values below receive class 0.

# compound, class
data = [
    ("CC[C@H](C)CN(C[C@@H](O)[C@H](Cc1ccccc1)NC(=O)O[C@H]1CO[C@H]2OCC[C@H]21)S(=O)(=O)c1ccc(CO)cc1 [10c]", "class 1"),
    ("CC[C@H](C)CN(C[C@@H](O)[C@H](Cc1ccccc1)NC(=O)O[C@H]1CO[C@H]2OCC[C@H]21)S(=O)(=O)c1ccc(N)cc1 [10a]", "class 0"),
    ("CCC(CC)CN(C[C@@H](O)[C@H](Cc1ccccc1)NC(=O)O[C@H]1CO[C@H]2OCC[C@H]21)S(=O)(=O)c1ccc2c(c1)OCO2 [11d]", "class 0"),
]

# input Check the entry CCC(CC)CN(C[C@@H](O)[C@H](Cc1ccccc1)NC(=O)O[C@H]1CO[C@H]2OCC[C@H]21)S(=O)(=O)c1ccc(OC)cc1 [11b] : does Microsomal Stability (Avg. % Fraction Remaining) at 60 Minutes Human equal or exceed 70%?
# output class 0

# input Check the entry CC[C@H](C)CN(C[C@@H](O)[C@H](Cc1ccccc1)NC(=O)O[C@H]1CO[C@H]2OCC[C@H]21)S(=O)(=O)c1ccc2c(c1)OCO2 [10d] : does Microsomal Stability (Avg. % Fraction Remaining) at 60 Minutes Human equal or exceed 70%?
# output class 0

###

Assay: Microsomal stability
Type: in vitro ADME
Conditions: rat microsomes, 30 min, RTV +
The threshold is inclusive: Microsomal Stability (Avg. % Fraction Remaining) at 30 Minutes Rat of exactly 20% counts as Condition met; values below receive Condition not met.

# compound, class
measured = [
    ("CCC(CC)CN(C[C@@H](O)[C@H](Cc1ccccc1)NC(=O)O[C@H]1CO[C@H]2OCC[C@H]21)S(=O)(=O)c1ccc2c(c1)OCO2 [11d]", "Condition met"),
    ("CC[C@H](C)CN(C[C@@H](O)[C@H](Cc1ccccc1)NC(=O)O[C@H]1CO[C@H]2OCC[C@H]21)S(=O)(=O)c1ccc(CO)cc1 [10c]", "Condition met"),
    ("CC[C@H](C)CN(C[C@@H](O)[C@H](Cc1ccccc1)NC(=O)O[C@H]1CO[C@H]2OCC[C@H]21)S(=O)(=O)c1ccc(OC)cc1 [10b]", "Condition not met"),
    ("CC[C@H](C)CN(C[C@@H](O)[C@H](Cc1ccccc1)NC(=O)O[C@H]1CO[C@H]2OCC[C@H]21)S(=O)(=O)c1ccc(N)cc1 [10a]", "Condition met"),
    ("CCC(CC)CN(C[C@@H](O)[C@H](Cc1ccccc1)NC(=O)O[C@H]1CO[C@H]2OCC[C@H]21)S(=O)(=O)c1ccc(CO)cc1 [11c]", "Condition met"),
    ("CCC(CC)CN(C[C@@H](O)[C@H](Cc1ccccc1)NC(=O)O[C@H]1CO[C@H]2OCC[C@H]21)S(=O)(=O)c1ccc(OC)cc1 [11b]", "Condition met"),
]

--- query ---
# input Check the entry CC[C@H](C)CN(C[C@@H](O)[C@H](Cc1ccccc1)NC(=O)O[C@H]1CO[C@H]2OCC[C@H]21)S(=O)(=O)c1ccc2c(c1)OCO2 [10d] : does Microsomal Stability (Avg. % Fraction Remaining) at 30 Minutes Rat equal or exceed 20%?
# output Condition not met

###

Assay: Microsomal stability
Type: in vitro ADME
Conditions: human microsomes, RTV −
Listing of recorded Microsomal T1/2 Human by entry.
Return type: number; implicit unit min.

Sample answers from the record:
# compound, result unit, Microsomal T1/2 Human
records = [
    ("CCC(CC)CN(C[C@@H](O)[C@H](Cc1ccccc1)NC(=O)O[C@H]1CO[C@H]2OCC[C@H]21)S(=O)(=O)c1ccc2c(c1)OCO2 [11d]", "min", 3),
    ("CC[C@H](C)CN(C[C@@H](O)[C@H](Cc1ccccc1)NC(=O)O[C@H]1CO[C@H]2OCC[C@H]21)S(=O)(=O)c1ccc2c(c1)OCO2 [10d]", "min", 9),
]

// moving on: another record for Microsomal T1/2 Human
In plain terms, CC[C@H](C)CN(C[C@@H](O)[C@H](Cc1ccccc1)NC(=O)O[C@H]1CO[C@H]2OCC[C@H]21)S(=O)(=O)c1ccc(OC)cc1 [10b] has a documented Microsomal T1/2 Human of 3

###

Experiment: Microsomal stability
Format: in vitro ADME
Conditions: rat microsomes, RTV +
Just a reminder that ties go to not satisfied: only Microsomal T1/2 Rat strictly below 10 min counts as satisfied.

Use these answered entries as a reference point.
# compound, class
measured = [
    ("CC[C@H](C)CN(C[C@@H](O)[C@H](Cc1ccccc1)NC(=O)O[C@H]1CO[C@H]2OCC[C@H]21)S(=O)(=O)c1ccc(CO)cc1 [10c]", "not satisfied"),
    ("CCC(CC)CN(C[C@@H](O)[C@H](Cc1ccccc1)NC(=O)O[C@H]1CO[C@H]2OCC[C@H]21)S(=O)(=O)c1ccc(CO)cc1 [11c]", "not satisfied"),
]

# input Below 10 min on Microsomal T1/2 Rat? Entry CCC(CC)CN(C[C@@H](O)[C@H](Cc1ccccc1)NC(=O)O[C@H]1CO[C@H]2OCC[C@H]21)S(=O)(=O)c1ccc(OC)cc1 [11b]
# output not satisfied

# input Below 10 min on Microsomal T1/2 Rat? Entry CC[C@H](C)CN(C[C@@H](O)[C@H](Cc1ccccc1)NC(=O)O[C@H]1CO[C@H]2OCC[C@H]21)S(=O)(=O)c1ccc2c(c1)OCO2 [10d]
# output satisfied

# input Below 10 min on Microsomal T1/2 Rat? Entry CC[C@H](C)CN(C[C@@H](O)[C@H](Cc1ccccc1)NC(=O)O[C@H]1CO[C@H]2OCC[C@H]21)S(=O)(=O)c1ccc(N)cc1 [10a]
# output not satisfied

# input Below 10 min on Microsomal T1/2 Rat? Entry CCC(CC)CN(C[C@@H](O)[C@H](Cc1ccccc1)NC(=O)O[C@H]1CO[C@H]2OCC[C@H]21)S(=O)(=O)c1ccc2c(c1)OCO2 [11d]
# output not satisfied

# input Below 10 min on Microsomal T1/2 Rat? Entry CC[C@H](C)CN(C[C@@H](O)[C@H](Cc1ccccc1)NC(=O)O[C@H]1CO[C@H]2OCC[C@H]21)S(=O)(=O)c1ccc(OC)cc1 [10b]
# output satisfied
